Experiment: qHTS for Inhibitors of the Functional Ribonucleoprotein Complex (vRNP) of Lymphocytic Choriomeningitis Arenaviruses (LCMV): LCMV Confirmatory Screen - GLuc reporter signal
Conditions: LCMV minigenome vRNP, Gaussia luciferase reporter; series mostly up to 53.9 µM
Results filed as inconclusive are left out. Active and inactive are the calls of the source. Calls come from the whole dose curve.
Please reply with one of these outcomes: y = active, n = inactive

Q: Call for entry CCCCCC[C@H]1C(=O)O[C@H](C)[C@H](NC(=O)c2cccc(NC=O)c2O)C(=O)O[C@@H](C)[C@@H]1OC(=O)CC(C)C :
Ans: y

Q: Call for entry CCC(C)c1nccnc1OC (stereo not drawn) :
Ans: n

Q: Call for entry O=C(Nc1ccccc1)Nc1ccc(-c2ccc(C(=O)[C@H]3CCC[C@H]3C(=O)O)cc2)cc1 :
Ans: n

Q: Call for entry CC1OC(=O)[C@@H](C(C)C)NC(=O)C(C(C)C)OC(=O)[C@H](C(C)C)NC(=O)C(C)OC(=O)[C@@H](C(C)C)NC(=O)C(C(C)C)OC(=O)[C@H](C(C)C)NC(=O)C(C)OC(=O)[C@@H](C(C)C)NC(=O)C(C(C)C)OC(=O)[C@H](C(C)C)NC1=O (stereo partly drawn) :
Ans: y

Q: Call for entry CO/C=C(/C(=O)OC)c1ccccc1Oc1cc(Oc2ccccc2C#N)ncn1 :
Ans: y

Q: Call for entry O=C1Cc2cc(CCN3CCN(c4nsc5ccccc45)CC3)c(Cl)cc2N1 :
Ans: n

Q: Call for entry C=C1CC[C@@H]2[C@](C)(CO)[C@H](O)CC[C@@]2(C)[C@@H]1/C=C/C1=CCOC1=O :
Ans: y

Q: Call for entry COCCOC(=O)C1=C(C)NC(C)=C(C(=O)OC/C=C/c2ccccc2)C1c1cccc([N+](=O)[O-])c1 (stereo not drawn) :
Ans: y

src = PubChem BioAssay AID1347084
